# Tested on: LXRb homodimer (NR concentration 270 nM)
# Assay explanation: PBM binding z-score (relative to random genomic background probes); higher = stronger binding; sequences stand for … in GC…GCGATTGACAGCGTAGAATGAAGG
Cut-off -0.3 on PBM binding z-score, inclusive. At or above means True; below means False.

[[record]]
sequence_input = "CTCGAAAGGTCGGTTGAGCTGAGTATACGGATAA"
system_name = "LXRb homodimer (NR concentration 270 nM)"
class_assignment = "True"

[[record]]
sequence_input = "CTCGAAAGGTCGCGCTCAGGTGAGTATACCAAAC"
system_name = "LXRb homodimer (NR concentration 270 nM)"
class_assignment = "True"

[[record]]
sequence_input = "TTACCAAGGTTAAGGTCGTTGATCCCTCTGTAGA"
system_name = "LXRb homodimer (NR concentration 270 nM)"
class_assignment = "True"

[[record]]
sequence_input = "AGAAGGAGGGCACGCTGAGTTGATAGCAGAGTAG"
system_name = "LXRb homodimer (NR concentration 270 nM)"
class_assignment = "True"

[[record]]
sequence_input = "ACTCGGACGACAAAGGTCAGAGCTACGCCAGTGA"
system_name = "LXRb homodimer (NR concentration 270 nM)"
class_assignment = "True"

[[record]]
sequence_input = "TAGCCTAGGTCATTGAGGGGCCAGTATAGAAAGC"
system_name = "LXRb homodimer (NR concentration 270 nM)"
class_assignment = "True"

[[record]]
sequence_input = "CGAACTAGGTCAGAACAGGACTGTGAAGGATGAT"
system_name = "LXRb homodimer (NR concentration 270 nM)"
class_assignment = "False"

[[record]]
sequence_input = "ATATGTAGGTTACATTCGGGTCATTCAGGCTATG"
system_name = "LXRb homodimer (NR concentration 270 nM)"
class_assignment = "True"

[[record]]
sequence_input = "CGTCCAAGGTCAATGCTAGGTCAGTTAAAGCATT"
system_name = "LXRb homodimer (NR concentration 270 nM)"
class_assignment = "True"

[[record]]
sequence_input = "TCGAGTAGGTTAGTCGAGGCATTCAGCCAACATA"
system_name = "LXRb homodimer (NR concentration 270 nM)"
class_assignment = "False"

[[record]]
sequence_input = "ATCTCTAGGTAAAGATAGTTCATTGAATGCAAAT"
system_name = "LXRb homodimer (NR concentration 270 nM)"
class_assignment = "True"

[[record]]
sequence_input = "CCTACTGGGCCATTCAGAGCTCATTGATCATATG"
system_name = "LXRb homodimer (NR concentration 270 nM)"
class_assignment = "False"

